target: Human immunodeficiency virus type 1 integrase (Human immunodeficiency virus 1); assay: Inhibition of HIV1 recombinant integrase expressed in Escherichia coli
Sequence (Q7ZJM1 whole entry): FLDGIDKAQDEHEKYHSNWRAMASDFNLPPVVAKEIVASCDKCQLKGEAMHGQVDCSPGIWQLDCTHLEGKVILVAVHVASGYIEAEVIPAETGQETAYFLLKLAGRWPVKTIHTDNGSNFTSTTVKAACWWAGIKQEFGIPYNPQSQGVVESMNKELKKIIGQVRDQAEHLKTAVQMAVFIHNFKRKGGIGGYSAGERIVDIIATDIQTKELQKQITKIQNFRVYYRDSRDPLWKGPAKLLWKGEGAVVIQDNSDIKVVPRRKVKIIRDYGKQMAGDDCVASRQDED
measured.attribute: IC50

Would you please look over these solved cases?
compound	IC50
CCOC(=O)[C@@]1(O)C[C@@H](OC(=O)/C=C/c2ccc(O)c(O)c2)[C@H](O)[C@H](OC(=O)/C=C/c2cc(OC)c(O)c(OC)c2)C1	80.5 µM
O=C(O)C1=CO[C@@H](O[C@@H]2O[C@H](CO)[C@@H](O)[C@H](O)[C@H]2O)[C@@H]2C(CO)=CC[C@H]12 [GENIPOSIDIC ACID]	> 267 µM
CCOC(=O)[C@]1(O)C[C@@H](O)[C@@H](OC(=O)/C=C/c2cc(OC)c(O)c(OC)c2)[C@H](OC(=O)/C=C/c2ccc(O)c(O)c2)C1	73.9 µM

Now look at this one.
I would be grateful if you could share the reported IC50 for CCOC(=O)[C@]1(O)C[C@@H](O)[C@@H](O)[C@H](OC(=O)/C=C/c2ccc(O)c(O)c2)C1 [ETHYL CHLOROGENATE] . 116 µM
